These data points were gathered from patent US9605005B2.

# Tested on: p52 (NF-kB2) nuclear translocation, HeLa cells
# Procedure Text: p52 (NF-kB2) nuclear translocation assay in HeLa cells (non-classical NF-kB signaling, anti-lymphotoxin beta receptor antibody stimulated)
# Assay type: cell-based
# Settings: Homo sapiens, 100 ng/mL anti-lymphotoxin beta receptor antibody for 5 hours, read-out: p52 HeLa Transloc Assay (IC50)
Measurement Label: pIC50
Here pIC50 is given on a logarithmic scale as minus log10 of the concentration in mol/L.

Consider the worked cases shown below.
1. CN1CC[C@@](O)(C#Cc2cccc(-n3nc(C(N)=O)c4c3CCC[C@@H]4O)c2)C1=O : 6.26
2. C[C@@](O)(C#Cc1cccc(-n2nc(C(N)=O)c3ccccc32)c1)c1c[nH]nn1 : 7.13
3. CN1CC[C@@](O)(C#Cc2cccc(-c3nc(C(N)=O)n4ccncc34)c2)C1=O : 7.59
4. CN1CC[C@@](O)(C#Cc2cccc(-n3nc(C(N)=O)c4c3CCN(c3ncccn3)C4)c2)C1=O : 6.69
5. NC(=O)c1nn(-c2cc(C#C[C@]3(O)CCc4cccnc43)ccn2)c2cc(F)ccc12 : 6.61

Query: // query pIC50 value for entry CN1CC[C@@](O)(C#Cc2cccc(-c3nc(C(N)=O)n4c3CCCC4)c2)C1=O
Result: 6.82

Query: Can you handle CN1CC[C@@](O)(C#Cc2cc(-n3nc(C(N)=O)c4c3CCCC4)ccc2C#N)C1=O next?
Result: 6.40

Query: Can you handle CN1CC[C@@](O)(C#Cc2cccc(-n3nc(C(N)=O)c4ccc(F)cc43)c2)C1=O next?
Result: 7.02

Query: Can you handle CN1CC[C@@](O)(C#Cc2cccc(-n3nc(C(N)=O)c4c3CCN(c3nccs3)C4)c2)C1=O next?
Result: 6.58
